Data origin: patent US20060264460A1

- Target Or System: human Cot/Tpl2 kinase (Homo sapiens, UniProt P41279)
- Construct: human Cot/Tpl2 kinase construct encoding residues 30-398; 6His (N); made in house; host or cells: Sf9 insect cells, baculovirus system (BD Biosciences)
- Sequence (P41279 30-398): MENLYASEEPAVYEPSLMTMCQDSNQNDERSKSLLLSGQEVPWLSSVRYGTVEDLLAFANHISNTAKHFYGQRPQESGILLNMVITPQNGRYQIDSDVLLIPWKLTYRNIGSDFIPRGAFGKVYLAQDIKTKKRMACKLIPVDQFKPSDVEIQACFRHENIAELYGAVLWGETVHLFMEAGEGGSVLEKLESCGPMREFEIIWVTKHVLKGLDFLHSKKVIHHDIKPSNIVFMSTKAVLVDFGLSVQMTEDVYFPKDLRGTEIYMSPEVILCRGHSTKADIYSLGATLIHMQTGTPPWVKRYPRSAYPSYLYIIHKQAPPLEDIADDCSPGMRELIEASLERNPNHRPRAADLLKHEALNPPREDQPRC
- Protocol Description: Tpl2/Cot kinase assay: GST-MEK1 phosphorylation detected by ELISA (DELFIA Eu)
- Assay type: biochemical
- Details: Tpl2/Cot kinase, GST-MEK1 substrate, 50 uM ATP
pIC50: −log10 of the molar value.
Recorded Endpoint: pIC50

# Compound, pIC50
measured = [
    ("N#Cc1cnc2c(Cl)cc(NCc3cn(CC(=O)NCCN4CCOCC4)nn3)cc2c1Nc1ccc(F)c(Cl)c1 [Example 820]", 7.85),
    ("N#Cc1cnc2c(Cl)cc(NCc3cn(CCCN4CCNCC4)nn3)cc2c1Nc1ccc(F)c(Cl)c1 [Example 769]", 6.80),
    ("CN(C)C(=O)CCn1cc(CNc2cc(Cl)c3ncc(C#N)c(Nc4ccc(F)c(Cl)c4)c3c2)nn1 [Example 789]", 8.00),
    ("N#Cc1cnc2c(Cl)cc(NCc3cn(-c4ccnc(N5CCCCC5)n4)nn3)cc2c1Nc1ccc(F)c(Cl)c1 [Example 747]", 6.49),
    ("N#Cc1cnc2c(Cl)cc(NCC3CCN(C(=O)c4cccnc4)CC3)cc2c1Nc1ccc(F)c(Cl)c1 [Example 850]", 6.89),
    ("N#Cc1cnc2c(Cl)cc(NCC(=O)NCc3ccccn3)cc2c1Nc1ccc(F)c(Cl)c1 [Example 780]", 6.48),
    ("N#Cc1cnc2c(Cl)cc(NCc3cn(CCCNS(=O)(=O)C(F)(F)F)nn3)cc2c1Nc1ccc(F)c(Cl)c1 [Example 906]", 8.89),
    ("CN(C)CC(c1ccccc1)n1cc(CNc2cc(Cl)c3ncc(C#N)c(Nc4ccc(F)c(Cl)c4)c3c2)nn1 (stereo not drawn) [Example 740]", 7.15),
    ("N#Cc1cnc2c(Br)cc(NCc3cn(CCCN4CCNCC4)nn3)cc2c1Nc1ccc(F)c(Cl)c1 [Example 768]", 6.96),
]

1. CN(C)CCNC(=O)CNc1cc(Cl)c2ncc(C#N)c(Nc3ccc(F)c(Cl)c3)c2c1 [Example 778]
2. N#Cc1cnc2c(Cl)cc(NCC(=O)Nc3cccnc3)cc2c1Nc1ccc(F)c(Cl)c1 [Example 773]
3. CCN(CC1CCN(C(=O)c2cccnc2)CC1)c1cc(Cl)c2ncc(C#N)c(Nc3ccc(F)c(Cl)c3)c2c1 [Example 848]
4. Cn1cnc(CNc2cc(Br)c3ncc(C#N)c(Nc4ccc(F)c(Cl)c4)c3c2)n1 [Example 664]
Query: Sort entries by pIC50 from minimum to maximum value. Write the labels out in the order the request specifies.
Reply: 1, 3, 4, 2
(1: 5.80, 3: 6.42, 4: 6.70, 2: 6.96)

----------
- Target Or System: human Cot/Tpl2 kinase (Homo sapiens)
- Construct: human Cot/Tpl2 kinase construct encoding residues 30-398; 6His (N); made in house; host or cells: Sf9 insect cells, baculovirus system (BD Biosciences)
- Protocol Description: Tpl2/Cot kinase assay: GST-MEK1 phosphorylation detected by ELISA (DELFIA Eu)
- Format: biochemical
- Details: 0.4 nM Tpl2, 35 nM GST-MEK1, 50 uM ATP, 1 h at 30° C.
- Procedure: Sf9 cells expressing the kinase were lysed in 50 mM NaPhosphate pH=8; 300 mM NaCl; 5 mM imidazole; 0.1 mM EGTA; 25 mM beta-glycerophosphate; 1% TX-100, 1% glycerol; 6 mM beta-mercaptoethanol and protease inhibitors. […] Tpl2/Cot activity was directly assayed using GST-MEK1 as a substrate. GST-MEK1 phosphorylation on serine residues 217 and 221 was detected by ELISA. […] After a final wash, Eu detection solution was added to each well and the Eu signal was measured in a Wallac Victor^2 Multilabel Counter. […]
Recorded Endpoint: IC50 (nM)

# Compound, Numeric Value
records = [
    ("Cc1noc(Nc2c(C#N)cnc3ccc(NCc4cnc[nH]4)cc23)c1C [Example 262]", 2200),
]

P. N#Cc1cnc2c(Br)cc(NCc3cn(CCN4CCOC4=O)nn3)cc2c1Nc1ccc(F)c(Cl)c1 [Example 223]
Q. N#Cc1cnc2ccc(NCc3ccn[nH]3)cc2c1NC1CCCCCC1 [Example 251]
Query: Given the listed records, identify the one among P and Q with higher IC50. Answer by stating the label of the chosen item.
Reply: Q

----------
- Target Or System: human Cot/Tpl2 kinase (Homo sapiens, UniProt P41279)
- Construct: human Cot/Tpl2 kinase construct encoding residues 30-398; 6His (N); made in house; host or cells: Sf9 insect cells, baculovirus system (BD Biosciences)
- Protocol Description: Tpl2/Cot kinase assay: GST-MEK1 phosphorylation detected by ELISA (DELFIA Eu)
- Type: biochemical
- Details: Table 2; Tpl2/Cot kinase, GST-MEK1 substrate, 50 uM ATP
Recorded Endpoint: IC50 (nM)

Worked cases, IC50 given:
# Molecule, Recorded Endpoint, Unit String, Numeric Value
data = [
    ("N#Cc1cnc2c(Br)cc(NCc3ccnn3-c3ccccc3)cc2c1Nc1ccc(F)c(Cl)c1", "IC50", "nM", 250),
    ("N#Cc1cnc2c(Br)cc(NCc3cn(CCCN4CCNCC4)nn3)cc2c1Nc1ccc(F)c(Cl)c1", "IC50", "nM", 110),
    ("Cc1cc(CNc2ccc3ncc(C#N)c(Nc4ccc(F)c(Cl)c4)c3c2)n[nH]1", "IC50", "nM", 110),
    ("CCc1[nH]cnc1CNc1cc(Cl)c2ncc(C#N)c(Nc3ccc(F)c(Cl)c3)c2c1", "IC50", "nM", 16),
    ("N#Cc1cnc2ccc(NC3CCN(Cc4ccccc4)CC3)cc2c1Nc1ccc(F)c(Cl)c1", "IC50", "nM", 1700),
]

I. N#Cc1cnc2c(Br)cc(NCc3cn(Cc4ccncc4)nn3)cc2c1Nc1ccc(F)c(Cl)c1
II. Cn1cc(CNc2ccc3ncc(C#N)c(Nc4ccc(F)c(F)c4)c3c2)ccc1=O
III. N#Cc1cnc2ccc(NCc3cccc(C(=O)O)c3)cc2c1Nc1ccc(F)c(Cl)c1
IV. N#Cc1cnc2c(Br)cc(NCc3cn(C45CC6CC(CC(C6)C4)C5)nn3)cc2c1Nc1ccc(F)c(Cl)c1
V. N#Cc1cnc2c(Br)cc(NCc3cn(CC4CCCNC4)nn3)cc2c1Nc1ccc(F)c(Cl)c1 (stereo not shown)
Query: Rank ascending by IC50. List labels; respect the requested ordering.
Reply: I, V, III, II, IV
(I: 4.8 nM, V: 33 nM, III: 180 nM, II: 1040 nM, IV: 1700 nM)

P. N#Cc1cnc2ccc(NCCN3CCOCC3)cc2c1Nc1ccc(Cc2ccccc2)cc1
Q. CN(CCn1cc(CNc2cc(Cl)c3ncc(C#N)c(Nc4ccc(F)c(Cl)c4)c3c2)nn1)C(=O)OC(C)(C)C
Query: Hi team, can someone confirm which has the larger IC50: P or Q ? Thanks. Indicate your choice by writing its label.
Reply: Q

----------
- Target Or System: human Cot/Tpl2 kinase (Homo sapiens, UniProt P41279)
- Construct: human Cot/Tpl2 kinase construct encoding residues 30-398; 6His (N); made in house; host or cells: Sf9 insect cells, baculovirus system (BD Biosciences)
- Protocol Description: Tpl2/Cot kinase assay: GST-MEK1 phosphorylation detected by ELISA (DELFIA Eu)
- Assay type: biochemical
- Details: Tpl2/Cot kinase, GST-MEK1 substrate, 50 uM ATP
Recorded Endpoint: IC50 (nM)

Answered examples (3):
# Compound, Target Or System, IC50, nM
data = [
    ("CS(=O)(=O)N1CCC(n2cc(CNc3cc(Br)c4ncc(C#N)c(Nc5ccc(F)c(Cl)c5)c4c3)nn2)CC1", "human Cot/Tpl2 kinase (Homo sapiens, UniProt P41279)", 1.1),
    ("CN1CCC(Cn2cc(CNc3cc(Cl)c4ncc(C#N)c(Nc5ccc(F)c(Cl)c5)c4c3)nn2)CC1", "human Cot/Tpl2 kinase (Homo sapiens, UniProt P41279)", 37),
    ("CC(C)N1CCC[C@@H]1Cn1cc(CNc2cc(Cl)c3ncc(C#N)c(Nc4ccc(F)c(Cl)c4)c3c2)nn1", "human Cot/Tpl2 kinase (Homo sapiens, UniProt P41279)", 46),
]

P. CN1CCC(n2cc(CN(C)c3cc(Br)c4ncc(C#N)c(Nc5ccc(F)c(Cl)c5)c4c3)nn2)CC1
Q. COCCNCC(=O)N1CCCC(CNc2cc(Cl)c3ncc(C#N)c(Nc4ccc(F)c(Cl)c4)c3c2)C1 (stereo not drawn)
R. CN1CCC(Cn2cc(CNc3cc(Br)c4ncc(C#N)c(Nc5ccc(F)c(Cl)c5)c4c3)nn2)CC1
Query: // ranking: key=IC50, reverse=True Reply with the labels, ordered as the question asks.
Reply: Q, P, R

I. N#Cc1cnc2c(Br)cc(NCc3cn(CCCO)nn3)cc2c1Nc1ccc(F)c(Cl)c1
II. CS(=O)(=O)NCCNc1cc(Cl)c2ncc(C#N)c(Nc3ccc(F)c(Cl)c3)c2c1
Query: Just curious, which one has the larger IC50 reading, I or II ? Lab note: record the label of whichever item you select.
Reply: II

a. CN1CCC[C@@H]1Cn1cc(CNc2cc(Cl)c3ncc(C#N)c(Nc4ccc(F)c(Cl)c4)c3c2)nn1
b. CN1CCCC1CCNC(=O)Cn1cc(CNc2cc(Cl)c3ncc(C#N)c(Nc4ccc(F)c(Cl)c4)c3c2)nn1 (stereo not drawn) [Example 651]
c. CN1CCN(C(=O)Cn2cc(CNc3cc(Cl)c4ncc(C#N)c(Nc5ccc(F)c(Cl)c5)c4c3)nn2)CC1
d. N#Cc1cnc2c(Cl)cc(NCC(=O)N3CCCCCC3)cc2c1Nc1ccc(F)c(Cl)c1
Query: Rank the items in ascending order with respect to IC50. Field: ranking. Enter the labels in the order requested.
Reply: b, c, a, d

a. CC(C)Cn1cc(CNc2cc(Cl)c3ncc(C#N)c(Nc4ccc(F)c(Cl)c4)c3c2)nn1
b. CCN1CCC(CCn2cc(CNc3cc(Br)c4ncc(C#N)c(Nc5ccc(F)c(Cl)c5)c4c3)nn2)CC1
Query: Could you tell me which of these two has the smaller IC50 figure? First: a Second: b When you have decided, please share the label of that item.
Reply: b
(b: 64 nM, a: 170 nM)

1. CN1CCC(Cn2cc(CN(C)c3cc(Br)c4ncc(C#N)c(Nc5ccc(F)c(Cl)c5)c4c3)nn2)CC1
2. N#Cc1cnc2c(Cl)cc(NCc3cn(CC(=O)NCc4cccnc4)nn3)cc2c1Nc1ccc(F)c(Cl)c1
Query: Select one. Lower IC50: 1 or 2 I would appreciate it if you answered with the label of your choice.
Reply: 2
(2: 0.8 nM, 1: 290 nM)

A. N#Cc1cnc2c(Cl)cc(NCc3cn(Cc4ccnc(C(F)(F)F)c4)nn3)cc2c1Nc1ccc(F)c(Cl)c1
B. N#Cc1cnc2c(Br)cc(NCc3cn(Cc4cncnc4)nn3)cc2c1Nc1ccc(F)c(Cl)c1
C. N#Cc1cnc2c(Cl)cc(NCc3cn(CC4CCCN4)nn3)cc2c1Nc1ccc(F)c(Cl)c1 (stereo not drawn)
D. COCCn1cc(CNc2cc(Cl)c3ncc(C#N)c(Nc4ccc(F)c(Cl)c4)c3c2)nn1
E. CNC(=O)NCCCn1cc(CNc2cc(Cl)c3ncc(C#N)c(Nc4ccc(F)c(Cl)c4)c3c2)nn1
Query: List these items ordered by IC50, big to small. In plain terms: list the labels in the order you were asked to.
Reply: A, D, C, B, E
(A: 80 nM, D: 20 nM, C: 9.1 nM, B: 2.5 nM, E: 1 nM)

A. CC(=O)N1CCCC(Nc2cc(Cl)c3ncc(C#N)c(Nc4ccc(F)c(Cl)c4)c3c2)C1 (stereo not drawn)
B. N#Cc1cnc2c(Cl)cc(NCc3cn(C[C@@H]4CCCN4)nn3)cc2c1Nc1ccc(F)c(Cl)c1
Query: Of the two listed items, which has the higher IC50? First: A Second: B Give the chosen item's label as your response.
Reply: A

I. N#Cc1cnc2c(Cl)cc(NCc3nc[nH]n3)cc2c1Nc1ccc(F)c(Cl)c1
II. CC(C)S(=O)(=O)NCCCn1cc(CNc2cc(Cl)c3ncc(C#N)c(Nc4ccc(F)c(Cl)c4)c3c2)nn1
III. N#Cc1cnc2c(Cl)cc(NCCNC(=O)c3cncnc3)cc2c1Nc1ccc(F)c(Cl)c1
IV. N#Cc1cnc2c(Cl)cc(NCCNC(=O)Cc3ccncc3)cc2c1Nc1ccc(F)c(Cl)c1
Query: Returns the items ordered by IC50, from maximum to minimum. Put the labels in the order asked and list them.
Reply: IV, III, I, II

a. COCn1cc(CNc2cc(Br)c3ncc(C#N)c(Nc4ccc(F)c(Cl)c4)c3c2)nn1
b. CC(=O)N1CCC[C@H]1Cn1cc(CNc2cc(Cl)c3ncc(C#N)c(Nc4ccc(F)c(Cl)c4)c3c2)nn1
Query: Please let me know which one, a or b , has a lower measured IC50 value. Please identify the chosen entry by its label.
Reply: b
